B1: MIA2 (parent)
chain: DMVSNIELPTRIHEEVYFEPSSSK

- Variants of: B1
- test.protocol: protein stability index of a GFP-peptide fusion (GPS, HEK-293T) (PSI 1-6); higher = more stable;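 further: lentivirally expressed fusions sorted by FACS into six bins by GFP to DsRed ratio, PSI derived from sequencing read proportions per bin multiplied by bin number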
- run.parameters: c terminus: a fixed tail appended
Each entry gets false if its protein stability index stays under 4, and true if its protein stability index is 4 or above.

mutation	label.class
S4L	false

(Q) Is protein stability index for "S21D" at or above 4?
(A) true

(Q) Is protein stability index for "I12K" at or above 4?
(A) false

(Q) Is protein stability index for "S22H" at or above 4?
(A) true

(Q) Is protein stability index for "E19S" at or above 4?
(A) false

(Q) Is protein stability index for "S21R" at or above 4?
(A) false
